Every entry's value here was drawn from ChEMBL document CHEMBL1136758.

biological target: Melatonin receptor type 1B (Homo sapiens) (UniProt P49286); details: NIH3T3
Sequence (P49286 whole entry): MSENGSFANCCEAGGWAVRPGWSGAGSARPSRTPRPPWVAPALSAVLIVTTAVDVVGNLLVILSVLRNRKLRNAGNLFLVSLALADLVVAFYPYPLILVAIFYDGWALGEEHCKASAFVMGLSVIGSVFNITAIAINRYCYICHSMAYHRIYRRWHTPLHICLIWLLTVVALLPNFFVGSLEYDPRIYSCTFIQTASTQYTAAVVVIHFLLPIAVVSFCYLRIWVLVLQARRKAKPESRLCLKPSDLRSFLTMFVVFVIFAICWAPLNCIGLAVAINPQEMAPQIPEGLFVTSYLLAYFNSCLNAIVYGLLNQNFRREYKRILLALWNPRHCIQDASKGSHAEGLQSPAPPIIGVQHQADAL
Returns YES if the recorded pRA2 is greater than or equal to -1, and NO otherwise.

[[record]]
smilesstr = "O=C(NCCc1c2n(c3ccccc13)CCc1ccccc1-2)C1CCC1"
answerlabel = "NO"

[[record]]
smilesstr = "CC(=O)NCCc1c2n(c3ccccc13)CCc1ccccc1-2"
answerlabel = "NO"

[[record]]
smilesstr = "CCC(=O)NCCn1ccc2ccc(OC)cc21"
answerlabel = "YES"

[[record]]
smilesstr = "CCC(=O)NCCc1c2n(c3ccc(OC)cc13)CCCc1ccccc1-2"
answerlabel = "YES"

[[record]]
smilesstr = "COc1ccc2c(c1)c(CCNC(C)=O)c1n2CCCc2ccccc2-1"
answerlabel = "NO"

[[record]]
smilesstr = "COc1ccc2c(c1)c(CCNC(=O)C1CCC1)c1n2CCCc2ccccc2-1"
answerlabel = "NO"

[[record]]
smilesstr = "COc1ccc2[nH]c(I)c(CCNC(C)=O)c2c1"
answerlabel = "YES"

